Data provenance: paper PMC7156458

# TARGET_OR_SYSTEM: UniProt P05067
# ASSAY_COMMENT: Th-T (thioflavin-T) assay of Aβ42 aggregation
# Format: biochemical
# SETUP_CONDITIONS: column suffix _10; reading M87
Field: Fig. 7a Th-T reading, mean of three wells. Provide a value for each of the compounds that follow.
Please respond with just the number, no unit label.

Incoming: Would you mind telling me what Fig. 7a Th-T reading, mean of three wells value was observed for C=C1CCC2C(C)(CCC=C(C)C)C(O)CCC2(C)C1Cc1c(OC)oc(CO)c(C)c1=O (centres unmarked) [Compound 12] ?
Outgoing: 3.112

Incoming: Same thing, different compound: C=C1CC[C@@H]2[C@](C)(CC[C@H]3O[C@H](C=C(C)C)C[C@@]23C)[C@@H]1Cc1c(OC)oc(CO)c(C)c1=O [Compound 20]
Outgoing: 3.36

Incoming: Try the compound C=C1CCC2C(C)(CCC=C(C)C)C(O)CCC2(C)C1Cc1c(OC)oc(CO)c(C(=O)OC)c1=O (centres unmarked) [Compound 13]
Outgoing: 1.543

Incoming: // query: C=C1CC[C@@H]2[C@](C)(CC[C@H]3O[C@H](C=C(C)C)C[C@@]23C)[C@@H]1Cc1c(OC)oc(CO)c(C(=O)OC)c1=O [Compound 21]
Outgoing: 1.557

Incoming: Also check C=C1CCC2C(C)(CCC=C(C)C)C(O)CCC2(C)C1Cc1c(OC)oc(C)c(C(=O)OC)c1=O (centres unmarked) [Compound 14]
Outgoing: 2.811

----------
# TARGET_OR_SYSTEM: Aβ42 (Homo sapiens, UniProt P05067)
# Sequence (P05067 672-713): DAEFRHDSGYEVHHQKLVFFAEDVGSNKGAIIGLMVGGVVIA
# ASSAY_COMMENT: Th-T (thioflavin-T) assay of Aβ42 aggregation
# Format: biochemical
# SETUP_CONDITIONS: time-course reading M115; Supplementary Fig. 47 source data
PROPERTY: Th-T fluorescence, mean of three wells
Form: value (number only, do not type unit).

Incoming: Fill blank: measured Th-T fluorescence, mean of three wells of the molecule C=C1CCC2C(C)(CCC=C(C)C)C(O)CCC2(C)C1Cc1c(OC)oc(C)c(C)c1=O (stereo not drawn) [Compound 15, viridoxin A hydrolysate] is ____.
Outgoing: 3.333

Incoming: Okay, and C=C1CCC2C(C)(CCC=C(C)C)C(O)CCC2(C)C1Cc1c(OC)oc(C)c(C(=O)OC)c1=O (stereo not drawn) ?
Outgoing: 1.646

Incoming: // repeat for C=C1CC[C@@H]2[C@](C)(CC[C@H]3O[C@H](C=C(C)C)C[C@@]23C)[C@@H]1Cc1c(O)c(C)c(C)oc1=O and report
Outgoing: 3.028

Incoming: Now consider C=C1CC[C@@H]2[C@](C)(CC[C@H]3O[C@H](C=C(C)C)C[C@@]23C)[C@@H]1Cc1c(OC)oc(CO)c(C)c1=O and answer again.
Outgoing: 4.199

Incoming: Try this molecule too: C=C1CC[C@H]2[C@]3(C)C[C@H](C=C(C)C)O[C@H]3CC[C@]2(C)[C@@H]1Cc1c(OC)oc(C)c(C)c1=O
Outgoing: 3.938

Incoming: Moving on to C=C1CCC2C(C)(CCC=C(C)C)C(O)CCC2(C)C1Cc1c(OC)oc(C)c(C)c1=O (stereo not drawn) [Compound 11]
Outgoing: 3.426

----------
# System: MCF-7 cells
# ASSAY_COMMENT: cell cytotoxic effects against MCF-7 cells (72 h), A490
# Type: cell-based, human
# SETUP_CONDITIONS: Homo sapiens, MCF7, 72 h, MCF-7, 72 h, 0.1 µM (DMSO 0.002%); read-out: A490 (control =1) ave
PROPERTY: viability at 0.1 µM (%)
Form entry: value (%) — number only.

Incoming: # input molecule: C=C1CC[C@@H]2[C@](C)(CC[C@H]3O[C@H](C=C(C)C)C[C@@]23C)[C@@H]1Cc1c(OC)oc(C)c(C)c1=O ; wanted: its viability at 0.1 µM
Outgoing: 81.4

Incoming: And the next one, COc1cccc2c1C(=O)c1c(O)c3c(c(O)c1C2=O)C[C@@](O)(C(=O)CO)C[C@@H]3O[C@H]1C[C@H](N)[C@H](O)[C@H](C)O1 [Dox, doxorubicin, reference compound] ?
Outgoing: 82.9

Incoming: Now the molecule O=c1[nH]cc(F)c(=O)[nH]1 [Compound 5-FU, 5-fluorouracil, reference compound]
Outgoing: 75.5

Incoming: Try this molecule too: C=C1CCC2C3(C)CC(C=C(C)C)OC3CCC2(C)C1Cc1c(OC)oc(C)c(C)c1=O (stereo not shown)
Outgoing: 62.5
